test-system: BaF3_HER2WT cells (Homo sapiens, UniProt P04626)
Sequence (P04626 whole entry, change not shown): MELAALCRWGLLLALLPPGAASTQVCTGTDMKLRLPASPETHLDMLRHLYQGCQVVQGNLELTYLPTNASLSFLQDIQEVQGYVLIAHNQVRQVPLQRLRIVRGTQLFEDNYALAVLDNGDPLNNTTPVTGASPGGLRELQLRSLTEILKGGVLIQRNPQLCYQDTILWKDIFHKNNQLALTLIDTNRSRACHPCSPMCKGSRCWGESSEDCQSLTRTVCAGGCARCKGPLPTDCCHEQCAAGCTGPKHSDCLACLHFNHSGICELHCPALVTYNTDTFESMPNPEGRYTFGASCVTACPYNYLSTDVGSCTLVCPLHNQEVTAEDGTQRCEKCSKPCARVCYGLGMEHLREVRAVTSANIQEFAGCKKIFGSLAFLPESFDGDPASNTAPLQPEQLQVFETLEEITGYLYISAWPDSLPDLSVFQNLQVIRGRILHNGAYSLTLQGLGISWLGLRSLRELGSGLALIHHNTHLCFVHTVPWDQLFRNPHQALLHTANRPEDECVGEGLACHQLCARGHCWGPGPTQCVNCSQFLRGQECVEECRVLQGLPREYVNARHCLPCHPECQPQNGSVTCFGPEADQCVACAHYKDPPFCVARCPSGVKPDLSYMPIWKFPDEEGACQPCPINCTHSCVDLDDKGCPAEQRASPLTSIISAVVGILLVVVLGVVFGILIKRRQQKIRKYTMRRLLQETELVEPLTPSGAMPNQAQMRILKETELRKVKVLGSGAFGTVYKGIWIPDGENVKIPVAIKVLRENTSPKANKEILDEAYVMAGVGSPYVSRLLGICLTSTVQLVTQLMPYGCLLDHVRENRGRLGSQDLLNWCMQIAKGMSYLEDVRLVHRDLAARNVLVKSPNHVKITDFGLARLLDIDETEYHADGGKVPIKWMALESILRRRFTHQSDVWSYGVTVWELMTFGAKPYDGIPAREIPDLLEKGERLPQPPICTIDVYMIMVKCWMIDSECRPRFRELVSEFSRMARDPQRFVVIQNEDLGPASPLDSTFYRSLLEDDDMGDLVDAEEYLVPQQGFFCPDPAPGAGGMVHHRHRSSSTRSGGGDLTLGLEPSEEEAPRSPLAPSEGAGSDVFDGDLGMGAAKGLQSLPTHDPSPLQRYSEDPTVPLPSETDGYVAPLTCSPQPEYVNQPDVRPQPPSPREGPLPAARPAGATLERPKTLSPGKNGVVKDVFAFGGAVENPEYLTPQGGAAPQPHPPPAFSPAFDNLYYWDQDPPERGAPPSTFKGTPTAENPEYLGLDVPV
test-summary: Cell growth inhibition assay (CellTiterGlo), BaF3_HER2WT
Format: cell-based
cond: 3-day treatment, CellTiterGlo, read-out: Cell growth inhibition activity, HER2 WT
value-type: GI50

Recorded GI50, per entry:
>>> assay_result("Cc1cc(Nc2ncnn3ccc(C4CN(C(=O)/C=C/CN5CCC(F)CC5)C4)c23)ccc1Oc1ccn2ncnc2c1")
"< 200 nM"
>>> assay_result("Cc1cc(Nc2ncnn3ccc(C4CCN(C(=O)/C=C/CN(C)C)CC4(F)F)c23)ccc1Oc1ccn2ncnc2c1 (stereo not shown)")
"< 200 nM"

Now consider a different compound.
IN: Give GI50; test system BaF3_HER2WT cells (Homo sapiens, UniProt P04626); compound Cc1cc(Nc2ncnn3ccc(C4CN(C(=O)/C=C/CN5CCC(F)(F)C5)C4)c23)ccc1Oc1ccn2ncnc2c1
OUT: < 200 nM

====

test-system: BaF3_HER2YVMA cells (Homo sapiens, UniProt P04626, DUP772-775, cells depend on it)
Sequence (P04626 with tags, fused parts or gaps DUP772-775): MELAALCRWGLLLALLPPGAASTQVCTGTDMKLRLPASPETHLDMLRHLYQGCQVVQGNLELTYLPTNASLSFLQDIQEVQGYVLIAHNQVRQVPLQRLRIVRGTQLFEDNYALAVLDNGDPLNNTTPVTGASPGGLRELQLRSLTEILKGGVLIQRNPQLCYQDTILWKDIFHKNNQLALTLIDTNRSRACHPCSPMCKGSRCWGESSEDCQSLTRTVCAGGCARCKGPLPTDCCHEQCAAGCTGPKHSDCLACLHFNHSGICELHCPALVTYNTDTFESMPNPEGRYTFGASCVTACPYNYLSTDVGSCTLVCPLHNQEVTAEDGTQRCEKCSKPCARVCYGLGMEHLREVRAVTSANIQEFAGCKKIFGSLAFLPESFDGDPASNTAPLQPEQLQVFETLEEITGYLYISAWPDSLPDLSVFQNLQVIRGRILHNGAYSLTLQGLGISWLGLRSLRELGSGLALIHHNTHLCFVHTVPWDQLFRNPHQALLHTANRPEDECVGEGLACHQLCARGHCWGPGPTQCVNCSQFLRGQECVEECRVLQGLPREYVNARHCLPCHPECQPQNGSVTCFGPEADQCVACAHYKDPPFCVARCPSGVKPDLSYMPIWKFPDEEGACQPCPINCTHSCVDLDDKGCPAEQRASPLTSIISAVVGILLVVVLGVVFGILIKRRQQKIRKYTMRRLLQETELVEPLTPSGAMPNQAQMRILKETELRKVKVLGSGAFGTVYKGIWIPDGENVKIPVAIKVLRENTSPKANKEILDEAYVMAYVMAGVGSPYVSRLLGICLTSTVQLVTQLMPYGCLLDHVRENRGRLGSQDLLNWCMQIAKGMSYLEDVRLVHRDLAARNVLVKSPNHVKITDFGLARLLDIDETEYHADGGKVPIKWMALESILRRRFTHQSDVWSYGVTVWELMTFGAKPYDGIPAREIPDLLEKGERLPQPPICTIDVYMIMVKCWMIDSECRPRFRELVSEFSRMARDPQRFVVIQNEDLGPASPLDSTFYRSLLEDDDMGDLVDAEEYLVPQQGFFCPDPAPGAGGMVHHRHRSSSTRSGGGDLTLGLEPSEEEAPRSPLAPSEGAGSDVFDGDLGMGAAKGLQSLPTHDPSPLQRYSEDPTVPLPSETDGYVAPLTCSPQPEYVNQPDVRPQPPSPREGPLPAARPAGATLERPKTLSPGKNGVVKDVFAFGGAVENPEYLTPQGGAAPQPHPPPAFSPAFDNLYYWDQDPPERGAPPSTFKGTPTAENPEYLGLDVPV
test-summary: Cell growth inhibition assay (CellTiterGlo), BaF3_HER2YVMA
Assay type: cell-based
cond: 3-day treatment, CellTiterGlo, read-out: Cell growth inhibition activity, HER2 - YVMA
The entries below are paired with their reported GI50.

>>> assay_result("Cc1cc(Nc2ncnn3ccc(C4CCN(C(=O)/C=C/CN5CC(F)C5)CC4)c23)ccc1Oc1ccn2ncnc2c1")
"< 200 nM"
>>> assay_result("Cc1cc(Nc2ncnn3ccc(C(=O)NCCCN(C)C)c23)ccc1Oc1ccn2ncnc2c1")
"1500 to 5000 nM"
>>> assay_result("C=CC(=O)NC1CCN(C(=O)c2ccn3ncnc(Nc4ccc(Oc5ccn6ncnc6c5)c(C)c4)c23)C1 (stereo not shown)")
"< 200 nM"
>>> assay_result("C=CC(=O)N1CCN(c2ccn3ncnc(Nc4ccc(Oc5ccn6ncnc6c5)c(C)c4)c23)CC12CC2")
"< 200 nM"
>>> assay_result("C=C(CN(C)C)C(=O)N1C2CCC1CN(c1ccn3ncnc(Nc4ccc(Oc5ccn6ncnc6c5)c(C)c4)c13)C2")
"1500 to 5000 nM"
>>> assay_result("Cc1cc(Nc2ncnn3ccc(C4CN(C(=O)/C=C/CN5CC(F)C5)C4)c23)ccc1Oc1ccn2ncnc2c1")
"< 200 nM"
>>> assay_result("Cc1cc(Nc2ncnn3ccc(C4CCN(C(=O)/C=C/C5CCCN5C)CC4)c23)ccc1Oc1ccn2ncnc2c1 (stereo not shown)")
"< 200 nM"
>>> assay_result("COC1CCN(C/C=C/C(=O)N2CC(c3ccn4ncnc(Nc5ccc(Oc6ccn7ncnc7c6)c(C)c5)c34)C2)CC1")
"< 200 nM"
>>> assay_result("Cc1cc(Nc2ncnn3ccc(N4C5CCC4CN(C(=O)/C=C/CN(C)C)C5)c23)ccc1Oc1ccn2ncnc2c1")
"< 200 nM"
>>> assay_result("CNC/C=C/C(=O)N1CC(c2ccn3ncnc(Nc4ccc(Oc5ccc6c(c5)ncn6C)c(C)c4)c23)C1")
"1500 to 5000 nM"

Consider the additional molecule presented here.
IN: Input C=CC(=O)N1CC2(CC(c3ccn4ncnc(Nc5ccc(Oc6ccn7ncnc7c6)c(C)c5)c34)C2)C1 , output reported GI50.
OUT: < 200 nM

====

Each entry below carries its reported GI50.
test-system: BaF3_HER2YVMA cells (Homo sapiens, UniProt P04626, DUP772-775, cells depend on it)
test-summary: Cell growth inhibition assay (CellTiterGlo), BaF3_HER2YVMA
Format: cell-based
cond: 3-day treatment, CellTiterGlo, read-out: Cell growth inhibition activity, HER2 - YVMA

>>> assay_result("Cc1cc(Nc2ncnn3ccc(C4CCN(C(=O)/C=C/CN(C)C)CC4(F)F)c23)ccc1Oc1ccn2ncnc2c1 (stereo not shown)")
"< 200 nM"

IN: Please report the measured GI50 for Cc1cc(Nc2ncnn3ccc(C4(O)CCN(C(=O)/C=C/CN(C)C)CC4)c23)ccc1Oc1ccn2ncnc2c1
OUT: 500 to 1500 nM

IN: Give the reported value of GI50 for this record: Cc1cc(Nc2ncnn3ccc(C4CCN(C(=O)C(F)Cl)CC4)c23)ccc1Oc1ccn2ncnc2c1 (stereo not shown) [Example 35, acetate]
OUT: < 200 nM

IN: Query GI50 for C=CC(=O)N1CC(c2ccn(-c3ccn4ncnc(Nc5ccc(Oc6ccn7ncnc7c6)c(C)c5)c34)n2)C1
OUT: 500 to 1500 nM
